From: patent US20200317776A1

Biological target: T1, cynomolgus monkey TREM2 Fc fusion (entire TREM2 ECD; only one Fc arm fused to TREM2) (cynomolgus monkey, UniProt Q9NZC2 19-174 (human entry))
T1 construct: also called cyno TREM2-Fc
T1 chain: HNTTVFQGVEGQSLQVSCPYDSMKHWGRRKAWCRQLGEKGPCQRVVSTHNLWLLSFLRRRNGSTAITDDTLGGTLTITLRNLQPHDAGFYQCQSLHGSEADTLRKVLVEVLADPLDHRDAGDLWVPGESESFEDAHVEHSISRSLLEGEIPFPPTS
Test: BLI, Fab, monovalent
pKd: −log10 of the molar value.
Outcome label depends on pKd relative to 9: at/above gives 1 (yes), below gives 0 (no).

[[record]]
binder = "AL2p-13 (antibody, V domains shown, Fab and IgG formats under one id; also called AL22-13) VH: QVQLVQSGAEVKKPGSSVKVSCKASGYAFSSHWMNWVRQAPGQGLEWMGRIYPGDGDTNYAQKFKGRVTITADESTSTAYMELSSLRSEDTAVYYCARLLRNQPGESYAMDYWGQGTLVTVSS VL: GVVMTQTPLSLSVTPGQPASISCRSSQSLIHSNGYTYLHWYLQKPGQSPQLLIYKVSNRRSGVPDRFSGSGSGTDFTLKISRVEAEDVGVYYCSQSTRVPYTFGQGTKLEIK"
group = "0 (no)"


INPUT: Is pKd at least 9? Consider AL2p-38 (antibody, V domains shown, Fab and IgG formats under one id) VH: QVQLVQSGAEVKKPGSSVKVSCKASGYAFSSHWMNWVRQAPGQGLEWMGRIYPGGGDTNYAQKFRGRVTITADESTSTAYMELSSLRSEDTAVYYCARLLRNQPGASYAMDYWGQGTLVTVSS VL: GVVMTQTPLSLSVTPGQPASISCRSSRSLVHSNRYTYLHWYLQKPGQSPQLLIYKVSNRRSGVPDRFSGSGSGTDFTLKISRVEAEDVGVYYCSQSTRVPYTFGQGTKLEIK
OUTPUT: 1 (yes)

INPUT: Is pKd at least 9? Consider AL2p-56 (antibody, V domains shown, same VH/VL entries as AL2p-55; Fab and IgG formats under one id) VH: EVQLVQSGAEVKKPGSSVKVSCKASGYAFSSHWMNWVRQAPGQGLEWMGRIYPGEGDTNYAQKFHGRVTITADESTSTAYMELSSLRSEDTAVYYCARLLRNKPGESYAMDYWGQGTLVTVSS VL: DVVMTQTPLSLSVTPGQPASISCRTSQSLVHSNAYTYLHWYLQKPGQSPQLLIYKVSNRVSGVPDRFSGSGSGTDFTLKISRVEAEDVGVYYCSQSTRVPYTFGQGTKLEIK
OUTPUT: 0 (no)
